Value source: patent US20260242735A1

targetEntity: human CD33 T75A (human, UniProt P20138 18-364)
Sequence (P20138 18-364 T75A limits assumed): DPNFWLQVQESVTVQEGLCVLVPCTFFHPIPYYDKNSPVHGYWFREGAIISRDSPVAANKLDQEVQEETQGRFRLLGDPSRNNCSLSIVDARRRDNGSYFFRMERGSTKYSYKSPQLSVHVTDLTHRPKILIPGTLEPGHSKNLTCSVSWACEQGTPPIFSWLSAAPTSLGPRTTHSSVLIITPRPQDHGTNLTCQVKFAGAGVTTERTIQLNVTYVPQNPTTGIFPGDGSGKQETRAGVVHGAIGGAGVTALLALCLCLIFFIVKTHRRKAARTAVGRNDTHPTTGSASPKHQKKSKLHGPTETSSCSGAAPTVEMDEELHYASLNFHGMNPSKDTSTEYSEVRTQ
assayComment: alanine scan, flow cytometry;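 further: HEK293-T cells transiently expressing single-residue alanine mutants of CD33 (alanine swapped to serine), antibody binding read by fluorescence in duplicate, background-subtracted, expressed relative to wild-type CD33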
Readings of Mean % WT Binding for the listed binders
Please state the figure in % WT; there is no need to write the unit.

binder	quantityUnit	Mean % WT Binding
Refmab #4 (antibody, V domains shown, Full-length format is human IgG1 Fc silent (PG-LALA); The alanine scan used IgG or Fab) VH: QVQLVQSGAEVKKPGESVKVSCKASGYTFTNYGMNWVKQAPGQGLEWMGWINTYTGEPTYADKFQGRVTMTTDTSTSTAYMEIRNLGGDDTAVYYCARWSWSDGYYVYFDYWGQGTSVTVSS VL: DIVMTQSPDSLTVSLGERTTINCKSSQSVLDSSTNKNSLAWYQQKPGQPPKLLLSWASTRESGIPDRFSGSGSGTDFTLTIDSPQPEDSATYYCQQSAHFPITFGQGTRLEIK	% WT	93.8
Refmab #2 (antibody, V domains shown, Full-length format is human IgG1 Fc silent (PG-LALA); The alanine scan used IgG or Fab) VH: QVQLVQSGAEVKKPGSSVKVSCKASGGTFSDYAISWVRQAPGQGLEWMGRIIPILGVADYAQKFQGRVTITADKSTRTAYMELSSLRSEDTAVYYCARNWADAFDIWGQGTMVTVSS VL: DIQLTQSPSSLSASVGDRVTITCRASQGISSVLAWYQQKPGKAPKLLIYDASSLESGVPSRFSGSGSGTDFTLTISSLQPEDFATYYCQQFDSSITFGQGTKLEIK	% WT	114
Refmab #3 (antibody, V domains shown, Full-length format is human IgG1 Fc silent (PG-LALA); The alanine scan used IgG or Fab) VH: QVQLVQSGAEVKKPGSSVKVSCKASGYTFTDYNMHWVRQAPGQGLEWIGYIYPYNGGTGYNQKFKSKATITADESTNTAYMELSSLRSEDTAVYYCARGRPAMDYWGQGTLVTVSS VL: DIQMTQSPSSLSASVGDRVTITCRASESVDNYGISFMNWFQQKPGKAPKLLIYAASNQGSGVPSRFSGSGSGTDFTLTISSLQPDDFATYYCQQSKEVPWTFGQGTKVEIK	% WT	118

# evaluate next
Entry under test: Refmab #1 (antibody, V domains shown, Full-length format is human IgG1 (Absolute Antibody Ab00283-10.0); The alanine scan used IgG or Fab; also called hP67.6) VH: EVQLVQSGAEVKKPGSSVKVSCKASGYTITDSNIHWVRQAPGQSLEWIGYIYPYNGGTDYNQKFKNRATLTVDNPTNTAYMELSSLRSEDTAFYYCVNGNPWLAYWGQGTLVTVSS VL: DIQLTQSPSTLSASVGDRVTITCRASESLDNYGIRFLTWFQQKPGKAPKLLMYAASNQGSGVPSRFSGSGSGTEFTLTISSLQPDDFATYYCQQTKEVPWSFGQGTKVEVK . Its Mean % WT Binding was 101
